Assay: yeast display, Sf9 membrane polyspecificity reagent, FACS + sequencing; frameworks hold sequencing errors
measurementLabel: polyreactivity (PSR sort gate)

QVQLVESGGGLLQAGGSLRLSCAASGRTFYVYAMGWYRQAPGKEREFVAAIDWGGGTTYYADSVKGRFTISRDNAKNNVYLQMNCLKPEDTAVYYCNAAYTDRFYYWGQGTQVTVSS
high polyreactivity
QVQLVESGGGLVQAGGSLRLSCAASGRTLRRYAMGWYRQAPGKERELVAAISRSGSSTYADSVKGRFTISRDNAKNTVSLQMNSLKPEDTAVYYCNAYQPRYGYWGQGTQVTVSS
high polyreactivity

* * *

Assay: yeast display, Sf9 membrane polyspecificity reagent, FACS + sequencing; frameworks hold sequencing errors
measurementLabel: polyreactivity (PSR sort gate)

QVQLVESGGGLVQAGGSLRLSCAASGSIFGANAMGWYRQAPGKERELVAAISSNGDDTYADSVMGRFTISRDNAKNTVYLQMNSLKPEDTAVYYCAARAERVREYNYWGQGTQVTVSS
low polyreactivity
QVQLVESGGGIVQAGGSLRLSCAASGRNFYYYAMGWYRQAPGKERELVAAISWSGGRTYYADSVKGRFTISRDNAKNTVYFQMNSLKPEDTAVYYSNAEPPRGYSVSSGGEMDYWGQGTEVTVSS
low polyreactivity

* * *

Assay: yeast display, Sf9 membrane polyspecificity reagent, FACS + sequencing; frameworks hold sequencing errors
measurementLabel: polyreactivity (PSR sort gate)

Check out these entries, answers already filled in.
QVQLEESAGGIVQAGGSLRLSCAGSGSTVSVYAMGWYRQAPGKEWELVARIRWSSGITYYADSVNGRFTISRDNAKNTVYLQLNSVKPEDTAVYYCNAQYRRAYLWFLYDYWGQGTQVTVSS
high polyreactivity
QVQLVESGGGLVQAGGSLRLICAASGSTFVPYTMAWYRQAPGKERELVAAISGSGGTDYADSVKGRFTISRDNGKNTVYLQMNSLKPEDTAVYYCAAYSRVVPSFYYWGQGTQVTVSS
low polyreactivity
QVQLVESGGGLVQAGGSLRLSCAASGSIFVYYAMGWYRQAPGKERELVAAISQRGGRTYYADSVKGRFTISRDNAKNTVYLQMNSLKPEDTAVYYCAADSGPASAGYYYWGQGTQVTVSS
high polyreactivity
QFQLVESGGGLVQAGGSLRLSSAPSGIIFPYYAMGWYRQAPGKERELVAAISRTGSTYYADSVKGRFTISRDNAKNTVYLQMNRLNPEVTAVYYCAARTYYSQGTSSVSLQQYGYWGEGTQVTVSS
low polyreactivity

Asked: Report polyreactivity (PSR sort gate) for `QVQLVDSGGGLVQAGGRLRLSCAASGSTFGHNAMGWYRQAPGKERQLLAAISRSGGITYYADSVKGRFTISRDNAKNTVYLQLNSLKPEDTAVYYCAADAWFSLRYAPRSYAYGYWGQGTQVTVSS` please.
Given back: low polyreactivity

Asked: How about `QVQLVESGGGLVQAGGSLRLSCAASGRIFYRYGMGRYRPAHGKVRELVASITRGGSTYYADSVKWRFTISRDNAKNTVYLQMNSLKPEDTAVYDSNRDIGGTSVLDDYWGQGTQVTVSS` ?
Given back: low polyreactivity

Asked: How about `QVQLVESGGGLVQAGGSLRLSCAASGRIFTYNAMGWYRQAPGKERELVAASSRRGGTTYYADSVKGRFTISRDIAKITVYLQMNSLKPEDTAVYYCAARGQYRYSFGDYSWGQGTQVTVSS` ?
Given back: high polyreactivity

Asked: How about `QVQLVESGGGLVQAGGSLRLSCAASGRTFARNAMGWYRPAPGKERELVAAITGRGGSTHYADSVKGRFTISRDNAKNTVYLKMNSLKPEDTAVYYCAADYRYNRGSTSNKDYDYWGQGTQVTVSS` ?
Given back: low polyreactivity

Asked: How about `QVQHVESGGGLVQAGGSLRLICAASGFTFHLYAMGWYRQAPGKERELVASITYSGGSTYYADSVKGRFTISRDKAKNTVYLHMNSLKAEDTAFYYCNRYSSSYSYDYWGQATQVTVSS` ?
Given back: high polyreactivity

Asked: How about `QVQLVESGGGLGQAGGSLRLSCAASGSTFPYYAMGWSRPAPGKERELVAVITSSGSRTYYADSVKGRFSMSRDKAKNTVYLQMNSLKPEETAVYYCARDTRYYRPYRSQYDYWGQGTQVTVSS` ?
Given back: high polyreactivity

Asked: How about `QVQLVESGGGLVQAGGSLRLSCAASGSIFRTNAMGWYRQAPGKEREFVASISSDSGNTYYADSVKGRFTISRDNAKYTVYLQMNSLKPEDTAVYYCARRKVRYWSYRAANYYWGQGTQVTVSS` ?
Given back: low polyreactivity

Values compiled from the nanobody polyreactivity screen of Harvey et al. (2022).
